# System: Leishmania donovani
# ASSAY PROTOCOL: In vitro antiparasitic activity against Leishmania donovani was tested by sigmoidal regression analysis
# Format: functional
Recorded measurements of ED50, one per entry
Only the number, expressed in µM, is required.

// known answers, use as guide
[
  {
    "SMILES DATA": "CC1=C(CCCCCNC(=O)OC(C)(C)C)C(=O)c2c(O)cccc2C1=O",
    "READOUT UNITS": "µM",
    "RESULT VALUE": 33.8
  },
  {
    "SMILES DATA": "CC1=C(CCNC(=O)OC(C)(C)C)C(=O)c2c(O)cccc2C1=O",
    "READOUT UNITS": "µM",
    "RESULT VALUE": 11.8
  },
  {
    "SMILES DATA": "CC1=C(CCCC(=O)N2CCN(C)CC2)C(=O)c2ccccc2C1=O",
    "READOUT UNITS": "µM",
    "RESULT VALUE": 32
  }
]

As a next step, examine the compound that follows.
// lookup ED50 for `CC1=C(CCCC(=O)NCCCNCCCNC(=O)CCCC2=C(C)C(=O)c3cccc(O)c3C2=O)C(=O)c2c(O)cccc2C1=O`
46.7
